B1: library; numbered along this chain (parent)
chain: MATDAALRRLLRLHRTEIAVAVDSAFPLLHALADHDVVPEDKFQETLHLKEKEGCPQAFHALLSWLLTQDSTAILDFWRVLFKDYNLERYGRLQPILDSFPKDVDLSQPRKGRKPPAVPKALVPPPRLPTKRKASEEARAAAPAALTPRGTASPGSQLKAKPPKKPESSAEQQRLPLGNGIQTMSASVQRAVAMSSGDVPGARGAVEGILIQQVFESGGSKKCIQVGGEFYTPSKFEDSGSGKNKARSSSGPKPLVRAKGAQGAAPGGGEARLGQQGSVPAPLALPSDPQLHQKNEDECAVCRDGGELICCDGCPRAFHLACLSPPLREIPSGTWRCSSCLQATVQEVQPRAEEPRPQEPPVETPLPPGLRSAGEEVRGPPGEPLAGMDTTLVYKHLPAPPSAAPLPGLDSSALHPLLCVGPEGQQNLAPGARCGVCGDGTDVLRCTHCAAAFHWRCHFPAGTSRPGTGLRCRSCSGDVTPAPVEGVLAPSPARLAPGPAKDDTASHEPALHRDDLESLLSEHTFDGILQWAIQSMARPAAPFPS

- Variants of: B1
- Assay Procedure: AIRE transcriptional activation functional score (insulin promoter-GFP; nonsense median 0, synonymous median 1) (normalised score); higher = higher AIRE activity (more reporter activation)
- Measurement Context: with insulin promoter-GFP reporter in HEK293
Property Measured: AIRE transcriptional activation functional score

- H292T: 1.13
- D312A: 1.19
- E296V: 0.556
- P282N: -0.335
- N86Y: 0.0334
- T183G: 0.735
- S196Y: 0.776
- L7H: 0.927
- K245G: 0.76
- Q213W: -1.06
- D76E: 0.132
- L28Q: 0.552
- V38P: -0.205
- P542M: 1.3
- K159S: 0.905
- S99L: 0.541
- S332L: 1.17
- Q276Y: 1.26
- C472W: -0.112
- T441Q: 1.35
- P115T: 0.525
- P460E: 1.16
- H319A: 1.16
- R465A: 0.476
- V104E: 0.823
- T147I: 1.16
- D41R: 0.0782
- A142Q: -0.0872
- V484D: 0.164
- E329H: 1.45
- C223M: 0.937
- L428N: 1.08
- H454L: -0.161
- R316G: 1.33
- I330A: 0.828
- K221H: 0.705
- C472K: 0.158
- L283T: 1.02
- E383R: 1.05
- S195E: 0.862
- S185C: 0.855
- K395A: 0.786
- C475K: -0.353
- E485W: 1.08
- T504Y: 1.77
- R247A: 0.732
